- measurement-target: human glucagon-like peptide 1 receptor (human, UniProt P43220 24-463)
- test-name: cell-based or functional assay
Please respond with reported EC50 (intracellular cAMP) for every item in the list.
Numbers only, in nM.

Reference set (4 entries):
binder | unit-spec | reported-result
YXEGTFTSDYSIXLDKIAQKAXVQWLIAGGPSSGAPPPS (Aib at positions 2 and 13; K at position 20 conjugated at the epsilon-amino group with ([2-(2-Amino-ethoxy)-ethoxy]-acetyl)2-(γGlu)2-CO-(CH2)16-CO2H; 1-Nal at position 22; C-terminal primary amide, Synthetic acylated peptide, trifluoroacetate salt) [Example 7] | nM | 35.5
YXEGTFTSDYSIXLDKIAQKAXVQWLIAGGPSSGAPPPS (Aib at positions 2 and 13; K at position 20 conjugated at the epsilon-amino group with ([2-(2-Amino-ethoxy)-ethoxy]-acetyl)2-(γGlu)1-CO-(CH2)18-CO2H; 1-Nal at position 22; C-terminal primary amide, Synthetic acylated peptide, trifluoroacetate salt) [Example 8] | nM | 57.9
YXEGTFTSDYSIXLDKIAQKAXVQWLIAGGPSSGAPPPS (Aib at positions 2 and 13; K at position 20 conjugated at the epsilon-amino group with ([2-(2-Amino-ethoxy)-ethoxy]-acetyl)2-(γGlu)1-CO-(CH2)16-CO2H; 1-Nal at position 22; C-terminal primary amide, Synthetic acylated peptide, trifluoroacetate salt) [Example 6] | nM | 28.4
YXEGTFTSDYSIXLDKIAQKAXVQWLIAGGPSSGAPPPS (Aib at positions 2 and 13; K at position 20 conjugated at the epsilon-amino group with ([2-(2-Amino-ethoxy)-ethoxy]-acetyl)2-(γGlu)2-CO-(CH2)18-CO2H; 1-Nal at position 22; C-terminal primary amide, Synthetic acylated peptide, trifluoroacetate salt) [Example 2] | nM | 75.7

Field: next binder
QUERY: For the binder YXEGTFTSDYSIXLDKIAQKAFVQWLIAGGPSSGAPPPS (Aib at positions 2 and 13; K at position 20 conjugated at the epsilon-amino group with ([2-(2-Amino-ethoxy)-ethoxy]-acetyl)2-(γGlu)1-CO-(CH2)16-CO2H; C-terminal primary amide, Synthetic acylated peptide, trifluoroacetate salt) [Example 3] , report EC50 (intracellular cAMP).
RESULT: 33.9
